The measurements presented in this section are drawn from the supplement of paper PMC10567573.

B1: BTBD1 (parent)
chain: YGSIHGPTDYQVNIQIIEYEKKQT

Variants of: B1
ASSAY REMARKS: protein stability index of a GFP-peptide fusion (GPS, HEK-293T) (PSI 1-6); higher = more stable;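 note: lentivirally expressed fusions sorted by FACS into six bins by GFP to DsRed ratio, PSI derived from sequencing read proportions per bin multiplied by bin number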
APPLIED CONDITIONS: c terminus: a fixed tail appended
Record form. Attribute: protein stability index. Fill in for each entry.
Number only, no unit.

// recorded protein stability index for Q11N : 2.39

// recorded protein stability index for Y10F : 2.43

// recorded protein stability index for H5C : 2.41

// recorded protein stability index for Q23V : 2.12

// recorded protein stability index for V12K : 3.44

// recorded protein stability index for K22E : 2.96

// recorded protein stability index for I4W : 2.5

// recorded protein stability index for S3T : 3.08

// recorded protein stability index for Y1H : 3.45

// recorded protein stability index for Q15L : 2.09

// recorded protein stability index for S3Y : 2.15

// recorded protein stability index for Q11E : 2.66

// recorded protein stability index for K21F : 3.75

// recorded protein stability index for K22Y : 2.47

// recorded protein stability index for Q11V : 1.42

// recorded protein stability index for K21R : 2.25

// recorded protein stability index for T24L : 2.03

// recorded protein stability index for I16M : 3.32

// recorded protein stability index for S3E : 3

// recorded protein stability index for T24P : 2.3

// recorded protein stability index for P7C : 2

// recorded protein stability index for N13S : 2.15

// recorded protein stability index for H5P : 3.29

// recorded protein stability index for E18D : 2.64

// recorded protein stability index for I17S : 3.31

// recorded protein stability index for E18Q : 2.1

// recorded protein stability index for S3K : 3.17

// recorded protein stability index for E20K : 2.35

// recorded protein stability index for Y10W : 2.05

// recorded protein stability index for Y10H : 3.77

// recorded protein stability index for D9Q : 2.18

// recorded protein stability index for H5S : 3.26

// recorded protein stability index for T24H : 2.9

// recorded protein stability index for E20I : 2.22

// recorded protein stability index for I17D : 3.63

// recorded protein stability index for I17Q : 3.35

// recorded protein stability index for Y10P : 4.31

// recorded protein stability index for I4Y : 2.94

// recorded protein stability index for E20L : 2.25

// recorded protein stability index for P7E : 3.33

// recorded protein stability index for G6D : 3.61

// recorded protein stability index for S3W : 2.17

// recorded protein stability index for I17C : 2.62

// recorded protein stability index for Q23Y : 1.93

// recorded protein stability index for K21V : 1.59

// recorded protein stability index for S3H : 3.09

// recorded protein stability index for S3A : 2.85

// recorded protein stability index for E18T : 2.07

// recorded protein stability index for I17E : 3.69

// recorded protein stability index for Q11L : 2.83

// recorded protein stability index for V12H : 4.09

// recorded protein stability index for I4V : 2.63

// recorded protein stability index for E20V : 1.84

// recorded protein stability index for I14M : 3.37

// recorded protein stability index for D9C : 1.94

// recorded protein stability index for Q11S : 2.34

// recorded protein stability index for I14H : 3.48

// recorded protein stability index for P7I : 2.44

// recorded protein stability index for D9M : 2.23

// recorded protein stability index for T24R : 2.69

// recorded protein stability index for I14G : 3.32

// recorded protein stability index for Y19G : 3.36

// recorded protein stability index for Y19Q : 3.29

// recorded protein stability index for I16R : 3.46

// recorded protein stability index for G2T : 1.9

// recorded protein stability index for I16C : 2.96

// recorded protein stability index for N13I : 1.83

// recorded protein stability index for T8E : 2.88

// recorded protein stability index for Y19T : 2.92

// recorded protein stability index for D9V : 2.24

// recorded protein stability index for V12E : 4.08

// recorded protein stability index for I14L : 3.36

// recorded protein stability index for Y1C : 3.4

// recorded protein stability index for I4C : 2.32

// recorded protein stability index for E20M : 2.33

// recorded protein stability index for S3N : 1.6

// recorded protein stability index for P7W : 4.06

// recorded protein stability index for P7G : 2.87

// recorded protein stability index for V12F : 2.71

// recorded protein stability index for Q15A : 1.96

// recorded protein stability index for E20N : 2.43

// recorded protein stability index for I14R : 3.53

// recorded protein stability index for T24W : 2.23

// recorded protein stability index for E18F : 3.79

// recorded protein stability index for I16Q : 3.9

// recorded protein stability index for G2I : 1.7

// recorded protein stability index for P7T : 2.73

// recorded protein stability index for T8G : 2.44

// recorded protein stability index for T8M : 1.74

// recorded protein stability index for T24G : 2.57

// recorded protein stability index for K21D : 2.46
